Give Inhibition against peptide substrate FGFR3-TACC3 v1 for every item shown.
Tested on: FGFR3-TACC3_v1 (N-FLAG) fusion polypeptide
Test: In vitro kinase activity of FGFR3-TACC3_v1 (N-FLAG) fusion polypeptide (HTRF KinEASE-TK, peptide substrate)
Type: biochemical, human
Settings: final concentration 10 nM; ATP 100 μM
Write the answer as a number in %, unit excluded.

Inhibition against peptide substrate FGFR3-TACC3 v1 lookup needed for COc1cc(OC)c(F)c(COc2cnc(Nc3cc(CN4CCN(C)CC4)n(C)n3)nc2)c1F , thanks. 40

// query Inhibition against peptide substrate FGFR3-TACC3 v1 value for entry COc1cc(OC)c(F)c(COc2cnc(Nc3ccc(N4CCN(C)CC4)cc3)nc2)c1F 80

Field request: Inhibition against peptide substrate FGFR3-TACC3 v1 | item: CCN1CCN(c2ccc(Nc3cc(N(C)C(=O)Nc4c(Cl)c(OC)cc(OC)c4Cl)ncn3)cc2)CC1 47

// Inhibition against peptide substrate FGFR3-TACC3 v1 lookup, key: COc1cc(CCc2cc(NC(=O)c3ccc(N4C[C@@H](C)N[C@@H](C)C4)cc3)[nH]n2)cc(OC)c1 46

If you can, please state the reported Inhibition against peptide substrate FGFR3-TACC3 v1 value of C[C@@H](Oc1ccc2[nH]nc(/C=C/c3cnn(CCO)c3)c2c1)c1c(Cl)cncc1Cl [LY2874455, reference compound] . 77

Name the reported Inhibition against peptide substrate FGFR3-TACC3 v1 value associated with the molecule COc1cc(OC)c(F)c(COc2cnc(Nc3cnn(C[C@@H](O)CO)c3)nc2)c1F 79
